Reference source: patent US20210388087A1

# TEST_SYSTEM: T1, Human CD137 ECD (human)
# T1 construct: entry includes C-terminal His-tag and biotin acceptor peptide; also called human CD137 extracellular domain; 4-1BB
# T1 sequence (chain, as listed by the source limits assumed): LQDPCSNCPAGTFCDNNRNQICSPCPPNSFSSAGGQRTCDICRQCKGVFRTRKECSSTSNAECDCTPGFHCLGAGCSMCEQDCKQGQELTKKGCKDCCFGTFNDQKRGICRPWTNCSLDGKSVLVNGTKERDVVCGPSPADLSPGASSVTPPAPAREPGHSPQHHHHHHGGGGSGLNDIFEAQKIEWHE
# TEST: Biacore SPR, vs parent H183/L072
Task for the reader: assign each of the following binders its reported fold change of affinity.
One number for each entry, in fold.

Here's what some known entries look like.
H183/L072 VL L33H (antibody, name in Kabat numbering, V domains shown, Dual-Ig) VH: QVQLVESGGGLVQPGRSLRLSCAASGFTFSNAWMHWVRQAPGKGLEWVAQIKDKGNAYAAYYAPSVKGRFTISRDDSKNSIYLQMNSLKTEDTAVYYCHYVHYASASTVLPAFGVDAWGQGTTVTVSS VL: DIVMTQSPLSLPVTPGEPASISCQASQELVHMNRNTYHHWYQQKPGQAPRLLIYKVSNRFPGVPDRFSGSGSGTDFTLKISRVEAEDVGVYYCAQGTSVPFTFGQGTKLEIK; 0.9
H183/L072 VL F55Q (antibody, name in Kabat numbering, V domains shown, Dual-Ig) VH: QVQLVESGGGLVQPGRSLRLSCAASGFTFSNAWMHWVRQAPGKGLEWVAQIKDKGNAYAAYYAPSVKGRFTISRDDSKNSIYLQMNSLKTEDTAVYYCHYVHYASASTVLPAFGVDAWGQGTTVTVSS VL: DIVMTQSPLSLPVTPGEPASISCQASQELVHMNRNTYLHWYQQKPGQAPRLLIYKVSNRQPGVPDRFSGSGSGTDFTLKISRVEAEDVGVYYCAQGTSVPFTFGQGTKLEIK; 0

Input line: Param item = H183/L072 VL V27cM (antibody, name in Kabat numbering, V domains shown, Dual-Ig) VH: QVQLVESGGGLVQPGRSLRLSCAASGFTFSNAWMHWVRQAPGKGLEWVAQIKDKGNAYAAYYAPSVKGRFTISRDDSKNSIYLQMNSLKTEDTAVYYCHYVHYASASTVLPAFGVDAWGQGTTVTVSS VL: DIVMTQSPLSLPVTPGEPASISCQASQELMHMNRNTYLHWYQQKPGQAPRLLIYKVSNRFPGVPDRFSGSGSGTDFTLKISRVEAEDVGVYYCAQGTSVPFTFGQGTKLEIK ; retrieve measured fold change of affinity.
Output line: 0.9
